- Assayed target: Streptokinase A (Streptococcus pyogenes serotype M1, UniProt P10520)
- Sequence (P10520 whole entry): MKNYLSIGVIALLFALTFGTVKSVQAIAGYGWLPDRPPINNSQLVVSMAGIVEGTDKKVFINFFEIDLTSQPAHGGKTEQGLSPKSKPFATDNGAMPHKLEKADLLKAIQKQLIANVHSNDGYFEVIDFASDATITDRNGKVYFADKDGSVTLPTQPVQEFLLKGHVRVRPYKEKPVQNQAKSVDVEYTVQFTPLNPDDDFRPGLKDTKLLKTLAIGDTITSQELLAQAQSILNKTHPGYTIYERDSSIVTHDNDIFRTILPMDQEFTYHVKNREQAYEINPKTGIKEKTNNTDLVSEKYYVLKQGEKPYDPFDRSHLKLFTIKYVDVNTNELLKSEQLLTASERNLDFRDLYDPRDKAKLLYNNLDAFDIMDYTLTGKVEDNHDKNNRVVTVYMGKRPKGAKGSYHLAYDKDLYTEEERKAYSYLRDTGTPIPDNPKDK
- Experiment: S. pyogenes streptokinase expression inhibitors, potency, dose response, plasminogen activation absorbance, OD405 (AID 1914);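 also: secreted streptokinase activity via plasminogen activation per viability signal from cell pellet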
- Assay type: functional, Streptococcus pyogenes M1 GAS
Active and inactive are the calls of the source.
Reported endpoint: EC50

| Molecule smiles | Reported endpoint | Endpoint result |
| --- | --- | --- |
| CC1=C/C(=N\NC(=S)NCCc2ccccc2)CC(C)(C)C1 | EC50 | 64 µM (active) |
| CCOC(=O)c1c(-c2ccc(C)o2)csc1NC(=O)COC(=O)c1ccc(NC(N)=O)cc1 | EC50 | 49.5 µM (active) |
| Cc1ccc(S(=O)(=O)N2CCCCC2)cc1NC(=O)CN1C(=O)CN(C)C1=O | EC50 | > 150 µM (not active) |
| Cc1noc(C)c1C(=O)Nc1ccc2ccccc2c1 | EC50 | > 150 µM (not active) |
| O=C(NNC1=Nc2cccc3cccc1c23)c1ccc(Br)cc1 | EC50 | > 150 µM (not active) |
| COc1cccc(/C=N/Nc2cc(C)nc(-c3ccccc3O)n2)c1O | EC50 | > 150 µM (not active) |
| O=C(N/N=C/c1ccccc1O)/C(O)=C\C1=NC2(CCCC2)Cc2ccccc21 | EC50 | > 150 µM (not active) |
| CCOc1ccccc1C(=O)OCC(=O)Nc1nnc(-c2ccccc2)o1 | EC50 | > 150 µM (not active) |

---

- Assayed target: Corticotropin-releasing factor receptor 2/Corticotropin-releasing factor-binding protein (Homo sapiens, UniProt P24387+Q13324)
- Sequence (Q13324 whole entry): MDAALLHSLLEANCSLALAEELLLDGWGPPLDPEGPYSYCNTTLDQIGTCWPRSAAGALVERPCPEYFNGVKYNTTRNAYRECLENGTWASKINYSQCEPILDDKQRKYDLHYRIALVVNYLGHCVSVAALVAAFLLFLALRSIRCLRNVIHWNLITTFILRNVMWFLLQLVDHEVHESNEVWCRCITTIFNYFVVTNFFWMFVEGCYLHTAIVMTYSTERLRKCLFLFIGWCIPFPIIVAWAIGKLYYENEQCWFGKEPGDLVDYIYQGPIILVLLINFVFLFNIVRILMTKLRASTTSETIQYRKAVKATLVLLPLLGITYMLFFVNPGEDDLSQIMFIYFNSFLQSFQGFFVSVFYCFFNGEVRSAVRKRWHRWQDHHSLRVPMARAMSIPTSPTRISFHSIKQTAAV
- Sequence (P24387 whole entry): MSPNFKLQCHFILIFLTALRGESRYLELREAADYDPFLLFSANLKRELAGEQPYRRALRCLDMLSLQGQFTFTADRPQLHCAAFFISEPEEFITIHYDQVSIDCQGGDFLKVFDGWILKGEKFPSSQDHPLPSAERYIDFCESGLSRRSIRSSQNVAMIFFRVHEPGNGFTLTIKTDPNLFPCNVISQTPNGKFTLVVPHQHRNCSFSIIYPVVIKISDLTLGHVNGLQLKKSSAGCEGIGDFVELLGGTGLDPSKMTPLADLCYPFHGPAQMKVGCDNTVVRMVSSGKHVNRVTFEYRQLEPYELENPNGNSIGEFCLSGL
- Experiment: Dose Response confirmation of uHTS hits for small molecule antagonists of the CRF-binding protein and CRF-R2 receptor complex.
- Assay type: functional
- Setup conditions: read-out: IC50_Mean
The source made the active and inactive calls.
Labels: active, inactive

| Compound | Assigned category |
| --- | --- |
| Cc1cc(OCCCC(=O)Nc2cc(S(=O)(=O)N3CCOCC3)ccc2N2CCOCC2)ccc1Cl | inactive |
| CCCc1n[nH]c(SCc2ccc(Cl)cc2Cl)n1 | inactive |
| O=C(Nc1nc(-c2ccccc2)cs1)c1ccc2c(c1)S(=O)(=O)c1ccccc1C2=O | inactive |
| COc1cccc(OC)c1C(=O)N1CCN(Cc2cccnc2)CC1 | inactive |
| CCC(C)c1ccc(S(=O)(=O)N2CCN(CC(O)COCC3CCCO3)CC2)cc1 (stereo not drawn) | inactive |
| CCN(c1ccccc1)c1nc(C#N)nc(N(CC)c2ccccc2)n1 | active |
| COc1ccc(N2CCN(C(=O)CCS(=O)(=O)c3ccc4c(c3)NC(=O)CO4)CC2)cc1 | inactive |
| CCCc1cc(=O)nc(SCC(=O)Nc2ccc(OC(F)F)cc2)[nH]1 | inactive |

---

Each record here notes measured EC50.
- Assayed target: UniProt:Q9XUB2
- Sequence (Q9XUB2 whole entry): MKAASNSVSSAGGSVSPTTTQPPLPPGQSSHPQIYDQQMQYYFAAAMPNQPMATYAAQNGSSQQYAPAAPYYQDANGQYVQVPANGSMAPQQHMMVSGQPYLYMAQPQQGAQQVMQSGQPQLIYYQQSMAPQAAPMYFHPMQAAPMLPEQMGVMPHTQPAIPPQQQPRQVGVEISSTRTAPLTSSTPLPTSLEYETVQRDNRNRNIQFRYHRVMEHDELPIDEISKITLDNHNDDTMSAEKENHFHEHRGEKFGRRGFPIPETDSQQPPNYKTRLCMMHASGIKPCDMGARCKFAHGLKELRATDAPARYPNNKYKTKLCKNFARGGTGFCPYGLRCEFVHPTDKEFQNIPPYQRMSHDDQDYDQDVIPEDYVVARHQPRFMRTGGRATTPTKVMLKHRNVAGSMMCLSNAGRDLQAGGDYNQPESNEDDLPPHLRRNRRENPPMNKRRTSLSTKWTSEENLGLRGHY
- Experiment: MEX-5/TCR-2 RNA interaction inhibitors, dose response, biochemical, C. elegans, fluorescence polarization (AID 1960)
Active and inactive are the calls of the source.

| Compound | EC50 |
| --- | --- |
| Fc1ccc2c(c1)C1C=CCC1C(c1cc3c(cc1Br)OCO3)N2 (stereo not given) | > 300 µM (not active) |
| CN1CC=C2C(C#N)=C(N)C(C#N)(C#N)C(c3ccncc3)C2C1 (stereo not given) | 7.73 µM (active) |
| CCOC(=O)Cc1nc2ccccc2n(CC#N)c1=O | > 300 µM (not active) |
| CCCCc1ccc(/C=C2\C(=O)ON=C2c2ccccc2)s1 | 87.7 µM (active) |
| CCOC(=O)[C@]1(C#N)[C@@H]2C=CC(C(C)=O)=CN2[C@@H](C(N)=O)[C@@H]1c1ccsc1 | 12.3 µM (active) |

---

Entries and their EC50 values follow.
- Assayed target: Heat shock factor protein 1 (Mus musculus)
- Sequence (P38532 whole entry): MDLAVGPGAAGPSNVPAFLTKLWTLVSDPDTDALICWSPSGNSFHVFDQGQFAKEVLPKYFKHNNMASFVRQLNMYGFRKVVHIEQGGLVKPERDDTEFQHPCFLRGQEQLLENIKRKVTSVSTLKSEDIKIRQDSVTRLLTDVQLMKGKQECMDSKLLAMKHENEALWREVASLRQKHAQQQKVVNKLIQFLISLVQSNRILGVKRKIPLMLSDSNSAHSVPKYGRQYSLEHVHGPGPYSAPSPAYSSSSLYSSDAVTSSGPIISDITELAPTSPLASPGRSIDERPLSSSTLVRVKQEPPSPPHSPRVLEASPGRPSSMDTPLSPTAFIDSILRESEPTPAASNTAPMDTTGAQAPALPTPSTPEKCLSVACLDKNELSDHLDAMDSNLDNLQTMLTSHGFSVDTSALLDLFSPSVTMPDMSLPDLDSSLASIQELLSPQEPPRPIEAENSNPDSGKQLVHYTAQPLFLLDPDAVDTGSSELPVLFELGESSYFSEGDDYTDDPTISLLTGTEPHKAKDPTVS
- Experiment: inhibition of MG132-induced HSE-luciferase signal, confirmation, cell-based, NIH3T3, luminescence, dose retest (AID 2382);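 also: NIH3T3 fibroblasts with HSF1-driven luciferase reporter stressed by proteasome inhibitor MG132; luminescence from HSF1-driven luciferase expression after 8 hours of MG132 stress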
- Type: functional

| Molecule smiles | EC50 |
| --- | --- |
| CCOc1ccc2nc(NC(=O)/C=C/c3ccc4c(c3)OCO4)sc2c1 | > 195 µM (not active) |
| O=C(CC1CCCCC1)NCc1ccccn1 | > 195 µM (not active) |
| C=CCSc1nc2ccccc2n1C(=O)/C=C/c1cc(OC)c(OC)c(OC)c1 | 10.3 µM (inconclusive) |

---

- Assayed target: Corticotropin-releasing factor receptor 2/Corticotropin-releasing factor-binding protein (Homo sapiens, UniProt P24387+Q13324)
- Sequence (Q13324 whole entry): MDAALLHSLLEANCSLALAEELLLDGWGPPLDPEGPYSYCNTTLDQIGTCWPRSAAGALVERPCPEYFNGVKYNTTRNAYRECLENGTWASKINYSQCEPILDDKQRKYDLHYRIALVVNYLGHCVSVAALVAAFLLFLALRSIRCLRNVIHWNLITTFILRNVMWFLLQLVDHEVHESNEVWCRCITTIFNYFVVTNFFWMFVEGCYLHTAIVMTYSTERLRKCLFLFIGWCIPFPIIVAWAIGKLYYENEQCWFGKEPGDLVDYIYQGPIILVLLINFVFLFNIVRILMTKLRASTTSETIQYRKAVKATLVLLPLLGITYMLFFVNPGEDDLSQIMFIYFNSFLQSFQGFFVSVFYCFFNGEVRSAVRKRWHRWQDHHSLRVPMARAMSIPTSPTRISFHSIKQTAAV
- Sequence (P24387 whole entry): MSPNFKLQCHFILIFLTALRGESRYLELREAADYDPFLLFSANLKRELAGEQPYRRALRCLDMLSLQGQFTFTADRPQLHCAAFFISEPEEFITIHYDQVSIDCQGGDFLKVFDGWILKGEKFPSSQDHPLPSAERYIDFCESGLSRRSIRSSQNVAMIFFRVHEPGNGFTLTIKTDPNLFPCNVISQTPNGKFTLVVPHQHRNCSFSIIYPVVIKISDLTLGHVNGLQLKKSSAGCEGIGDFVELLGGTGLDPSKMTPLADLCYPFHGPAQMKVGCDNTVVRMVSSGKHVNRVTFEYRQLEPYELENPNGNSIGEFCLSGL
- Experiment: activators of CRF receptor 2 with binding protein – uHTS hits, confirmation (AID 602473)
- Assay type: functional
- Setup conditions: read-out: EC50_Mean
Activity calls are given as the source filed them.
Outcomes: class 1 (active), class 0 (inactive)

| Molecule | Assigned category |
| --- | --- |
| CCCNC(=O)Cn1c(=O)/c(=C\c2ccc(-c3cccc([N+](=O)[O-])c3)o2)s/c1=C\C(=O)C(C)(C)C | class 0 |
| C=CCn1c(=O)/c(=C/c2cc(OC)c(OC)c(OC)c2)s/c1=C(/C#N)c1nc2ccccc2n1C | class 1 |
| O=C(NN=C(S)Nc1cccc(C(F)(F)F)c1)c1ccc(Cl)cc1Cl | class 0 |
| O=C1CSC(c2ccccc2F)N1c1cc(Cl)ccc1O (stereo not given) | class 0 |
| Cc1ccc(CNC(=O)CCC(=O)c2cccs2)cc1 | class 0 |
| C=CCN1C(=O)/C(=C2/Sc3ccc(OC)cc3N2CC)SC1=S | class 0 |
| CCC(C)c1ccc(S(=O)(=O)N2CCN(CC(O)COCC3CCCO3)CC2)cc1 (stereo not given) | class 0 |
| Cc1ccccc1C(=O)NCC(=O)OC1CCCCC1=O (stereo not given) | class 0 |
| CCOC(=O)C1CCCN(c2ncnc3c2cnn3-c2ccc(Cl)cc2)C1 (stereo not given) | class 0 |
| CCN(c1ccccc1)c1nc(C#N)nc(N(CC)c2ccccc2)n1 | class 0 |
